System: SUDIPGIV (diffuse intrinsic pontine glioma line)
Assay: area under dose-response curve of % growth inhibition (log2 RLU vs DMSO / staurosporine), 1e-11 to 1e-4 M (% x log10 M); higher = more growth inhibition

- input smiles: "CC(C)c1cc(-c2n[nH]c(=O)n2-c2ccc3c(ccn3C)c2)c(O)cc1O"
  study system: "SUDIPGIV"
  area under dose-response curve: 238
- input smiles: "CC[C@@]1(O)C(=O)OCc2c1cc1n(c2=O)Cc2cc3c(CN(C)C)c(O)ccc3nc2-1"
  study system: "SUDIPGIV"
  area under dose-response curve: 317
- input smiles: "C#Cc1cccc(Nc2ncnc3cc(OCCOC)c(OCCOC)cc23)c1"
  study system: "SUDIPGIV"
  area under dose-response curve: 53
- input smiles: "C[C@@]12OC(=O)[C@]1([C@@H](O)[C@@H]1C=CCCC1)NC(=O)[C@@H]2CCCl"
  study system: "SUDIPGIV"
  area under dose-response curve: 407
- input smiles: "C[C@]1(c2nc3c(C(N)=O)cccc3[nH]2)CCCN1"
  study system: "SUDIPGIV"
  area under dose-response curve: 6.66
